# credit: patent EP4585618A1

# test target: T1, LILRA6-His (Acro, LI6-H82E2) (human, UniProt Q6PI73 24-447)
# T1 construct: Bought protein. 'Human' stands at the head of the list of coated proteins; not shown: His tag
# T1 sequence (Q6PI73 24-447 limits assumed): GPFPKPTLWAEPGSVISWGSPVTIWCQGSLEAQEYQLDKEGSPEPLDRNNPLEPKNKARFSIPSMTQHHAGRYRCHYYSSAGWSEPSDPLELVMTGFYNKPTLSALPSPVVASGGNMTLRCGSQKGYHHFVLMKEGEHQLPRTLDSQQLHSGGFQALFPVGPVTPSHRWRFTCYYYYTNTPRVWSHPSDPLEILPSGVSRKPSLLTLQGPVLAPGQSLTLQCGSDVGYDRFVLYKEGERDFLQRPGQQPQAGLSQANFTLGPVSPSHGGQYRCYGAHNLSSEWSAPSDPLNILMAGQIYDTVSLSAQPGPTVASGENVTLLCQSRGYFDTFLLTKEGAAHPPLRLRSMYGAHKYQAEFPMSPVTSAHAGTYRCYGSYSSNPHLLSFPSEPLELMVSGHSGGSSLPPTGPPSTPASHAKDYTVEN
# experiment summary: ELISA, coated protein 1 µg/mL, antibody 10 µg/mL
# absorbance at 450 nm values compiled below
Give the value in absorbance at 450 nm but do not write absorbance at 450 nm after it.

Req: Give the measured absorbance at 450 nm of humanized antibody huP2-C6 (antibody, human IgG1, kappa, L234A L235A, V domains shown, Full chains; also called P2-C6H7L1) VH: EVQLVQSGAEVKKPGASVKVSCKASGYTFTDYYIHWVRQAPGQGLEWMGYIYPDTGYSGYNQKFKGRVTMTVDKSTSTAYMELRSLRSDDTAVYYCTRRGDYSGVHFDYWGQGTTVTVSS VL: DIVLTQSPDSLAVSLGERATINCRASESVNNYGVGFLHWYQQKPGQPPKLLIYRASTLESGIPDRFSGSGSGTDFTLTISSLQAEDVAVYYCQHSYKDPPWTFGGGTKVEIKR .
Resp: 0.0606

Req: For humanized antibody huP2-E8 (antibody, human IgG4 S228P, kappa, F234A L235A, V domains shown, Full chains; also called P2-E8H4L1) VH: EVQLVESGGGLVKPGGSLRLSCAASGFTFSDYGIHWVRQAPGKGLEWVAYISSGSSIHNYADTVKGRFTISRDNAKNSLYLQMNSLRAEDTAVYYCARGPNYYGSSYLLVYWGQGTLVTVSS VL: DIQMTQSPSSLSASVGDRVTITCKASQDVNIAVAWYQQKPGKAPKLLIYSASYRYTGVPSRFSGSGSGTDFTFTISSLQPEDIATYYCQQHYNIPWTFGGGTKVEIKR then?
Resp: 0.0461
